The reported numbers originate from patent US20260116991A1.

Hi there, I'd appreciate the recorded OD450 at 13.33 nM for every entry that follows.
# Tested target: biotinylated labeled human GPC3 protein (produced in-house) (human, UniProt P51654 25-559, limits assumed, biotinylated (Dojindo, Cat. No. LK03); sites not stated)
# Test name: ELISA, biotinylated human GPC3 protein

Quick one: OD450 at 13.33 nM for hAb003LH1L1 (antibody, human IgG1, V domains shown, Humanized F2.154.1; VH H1 + VL L1; expressed as human IgG1) VH: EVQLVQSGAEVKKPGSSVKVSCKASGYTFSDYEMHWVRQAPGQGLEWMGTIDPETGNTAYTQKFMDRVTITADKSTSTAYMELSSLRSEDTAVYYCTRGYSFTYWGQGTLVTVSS VL: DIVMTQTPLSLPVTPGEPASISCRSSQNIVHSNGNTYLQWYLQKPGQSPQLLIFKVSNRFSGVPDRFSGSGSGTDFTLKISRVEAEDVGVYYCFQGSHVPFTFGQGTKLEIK ? 2.57 OD450

Look up OD450 at 13.33 nM for this binder: hAb003LH1L1a (antibody, human IgG1, V domains shown, Humanized F2.154.1; VH H1 + VL L1a; expressed as human IgG1) VH: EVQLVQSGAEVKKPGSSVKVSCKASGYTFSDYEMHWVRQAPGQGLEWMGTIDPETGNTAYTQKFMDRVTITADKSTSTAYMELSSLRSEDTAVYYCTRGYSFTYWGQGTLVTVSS VL: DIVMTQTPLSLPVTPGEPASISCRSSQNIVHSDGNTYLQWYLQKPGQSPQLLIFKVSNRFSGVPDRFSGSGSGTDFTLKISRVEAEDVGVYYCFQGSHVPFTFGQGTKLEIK 2.21 OD450

# get_value(readout='OD450 at 13.33 nM', item= hAb003LH3L1 (antibody, human IgG1, V domains shown, Humanized F2.154.1; VH H3 + VL L1; expressed as human IgG1) VH: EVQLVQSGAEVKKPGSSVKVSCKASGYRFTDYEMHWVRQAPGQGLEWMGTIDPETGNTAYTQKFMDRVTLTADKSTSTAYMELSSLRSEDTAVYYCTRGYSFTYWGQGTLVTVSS VL: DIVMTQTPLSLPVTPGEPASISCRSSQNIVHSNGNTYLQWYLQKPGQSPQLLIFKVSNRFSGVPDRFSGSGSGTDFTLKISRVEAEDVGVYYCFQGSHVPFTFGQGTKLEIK ) 2.3 OD450
